Measured GI50 by item
tested on: A498; assay: NCI tumour cell line growth inhibition, 48 h
Activity calls are given as the source filed them. No stated cut-off is given here; in the data, active = GI50 up to about 1.1 µM and inactive = higher.

Some molecules with known GI50 results, for comparison:
INSERT INTO assay_data (molecule, measurement_target, observed_result) VALUES
  ('O=[N+]([O-])c1ccc2[nH]c(=S)[nH]c(=S)c2c1', 'A498', '> 100 µM (inactive)'),
  ('C=C1C(=O)CCC1C(=O)O (stereo unspecified)', 'A498', '> 100 µM (inactive)'),
  ('NCCCCc1cc(O)c2c(c1O)C(=O)c1ccccc1C2=O', 'A498', '18.2 µM (inactive)');

Query :: Return GI50 for the following molecule: `CC(=O)O[C@H]1CC[C@@]2(C)C(=CC[C@H]3[C@@H]4C[C@H](N5CCOCC5)[C@H](OC(C)=O)[C@@]4(C)CC[C@@H]32)C1`
Result :: > 100 µM (inactive)

Query :: Return GI50 for the following molecule: `O=C(Cn1c2ccc(Br)cc2c2nc3ccccc3nc21)NCc1ccccc1`
Result :: 31.2 µM (inactive)
